The reported numbers originate from paper PMC10695193.

Test system: MCF-7
TEST_DETAILS: MTT anti-proliferative assay, MCF-7
Type: cell-based
TEST_SETTINGS: Homo sapiens, MCF7, 72 h, read-out: IC50 MCF-7
PROPERTY_NAME: IC50
Respond with the figure and its unit, in that order.

1. NC1=NN(c2ccc([N+](=O)[O-])cc2[N+](=O)[O-])C(=O)C1=NNc1ccc(N=Nc2ccccc2)cc1 [Compound 6] : 9.11 µM
2. C#Cc1cccc(Nc2ncnc3cc(OCCOC)c(OCCOC)cc23)c1 [Erlotinib, reference compound] : 8.2 µM
3. NC(=O)N1N=C(N)C(N=Nc2ccc(N=Nc3ccccc3)cc2)C1=O (centres unmarked) [Compound 7] : 14.2 µM
4. N#Cc1nn(-c2ccc(N=Nc3ccccc3)cc2)c(=S)[nH]c1=O [Compound 11] : 39.2 µM
5. N#Cc1nn(-c2ccc(N=Nc3ccccc3)cc2)c(=N)[nH]c1=O [Compound 13] : 23.1 µM

Considering N#CC(=NNc1ccc(N=Nc2ccccc2)cc1)c1nc(=S)[nH][nH]1 [Compound 9] , its IC50 with MCF-7 was recorded as 13.8 µM

Considering N#Cc1nn(-c2ccc(N=Nc3ccccc3)cc2)c(=O)[nH]c1=O [Compound 12] , its IC50 with MCF-7 was recorded as 30.2 µM

Considering N#Cc1nn(-c2ccc(N=Nc3ccccc3)cc2)c(=N)n(S(=O)(=O)c2ccc(N)cc2)c1=O [Compound 14] , its IC50 with MCF-7 was recorded as 6.37 µM
